B1: EEHEE_rd4_0647 (parent)
chain: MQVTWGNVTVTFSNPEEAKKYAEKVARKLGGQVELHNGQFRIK

Variants of: B1
Assay: folding stability dG (cDNA display proteolysis); higher = more stable
Settings: PBS, room temperature
recorded.metric: folding stability dG (kcal/mol)
Answers are plain numbers, in kcal/mol.

| variant.key | folding stability dG (kcal/mol) |
| --- | --- |
| Q2W | 1.97 |
| L35N | 1.96 |
| V3F | 1.97 |
| N14V | 2.05 |

Look at each variant and report its folding stability dG.
1. T9K
2. G30S
3. T9F

*A*
1. 2.02
2. 1.98
3. 1.95

Short answer for F40M : folding stability dG was 1.95
